# Tested on: Canis familiaris
# assay: Toxicity in sc dosed mongrel dog assessed as behavioral changes
# Type: organism-based, Canis lupus familiaris
# applied conditions: in vivo
measurement label: Activity

compound | Activity
Br.CN1CCC[C@H]2c3ccc(O)cc3CC[C@@H]21 (relative stereo) | Non-toxic
Br.CN1CCC[C@@H]2c3ccc(O)cc3CC[C@@H]21 | Non-toxic
COc1ccc2c(c1OC)CC[C@H]1[C@@H]2CCCN1C (relative stereo) | Non-toxic
Br.CN1CCC[C@H]2c3cccc(O)c3CC[C@@H]21 (relative stereo) | Non-toxic

Prompt: Which value of Activity has been reported for CN1CCC[C@H]2c3ccccc3CC[C@@H]21 (relative stereo) in the records?
Response: Non-toxic

###

# Species on record: Felis catus
# assay: Effect on 2 Hz transmural stimulation of right atrium-induced positive chronotropic response in cat assessed as concentration required for 50% potentiation of change in heart rate
# Type: functional, Cardiac atrium
measurement label: Activity
Please give the number followed by its unit.

Prompt: Any idea what its Activity is? The compound is Br.CN1CCC[C@H]2c3ccc(O)cc3CC[C@@H]21 (relative stereo)
Response: 12.7 µM

Prompt: Entry CN1CCC[C@@H]2c3ccccc3CC[C@@H]21 (relative stereo) : reported Activity = ?
Response: 1.6 µM

Prompt: Fill in: Activity of CN1CCC[C@H]2c3ccccc3CC[C@@H]21 (relative stereo) is ___
Response: 7.8 µM

Prompt: Looking for the measured Activity of Br.CN1CCC[C@@H]2c3ccc(O)cc3CC[C@@H]21 , can you help?
Response: 3.9 µM

###

# assay: In vivo antagonist activity at dopamine receptor in pigeon assessed as inhibition of apomorphine-induced pecking behavior administered intramuscularly for 15 mins prior to apomorphine-challenge measured after 1 hr
# Type: functional
# applied conditions: Columbidae, im
Record form. Attribute: ED50. Fill in for each entry.
Hi! Could you send only the number? It should be in µmol/kg, unit omitted.

Prompt: What does the record list as ED50 for CN1CCC[C@H]2c3ccccc3CC[C@@H]21 (relative stereo) ?
Response: 2.2

Prompt: # query: ED50 of entry COc1ccc2c(c1OC)CC[C@H]1[C@@H]2CCCN1C (relative stereo)
Response: 1.7

Prompt: So what's the measured ED50 for this one? Br.CN1CCC[C@@H]2c3cccc(O)c3CC[C@@H]21 (relative stereo)
Response: 3.8

Prompt: Given the entry Br.CN1CCC[C@H]2c3cccc(O)c3CC[C@@H]21 (relative stereo) , report its measured ED50.
Response: 2.2

Prompt: Quick check: ED50 of CN1CCC[C@@H]2c3ccccc3CC[C@@H]21 (relative stereo) ?
Response: 2.7

Prompt: # get_value(readout='ED50', item= Br.CN1CCC[C@@H]2c3ccc(O)cc3CC[C@@H]21 )
Response: 16.5

Prompt: Requested read-out: ED50. Entry: Br.CN1CCC[C@@H]2c3ccc(O)c(O)c3CC[C@@H]21 (relative stereo)
Response: 8.3

Prompt: So what does the record say about ED50 for COc1ccc2c(c1OC)CC[C@H]1[C@H]2CCCN1C (relative stereo) ?
Response: 15.1

Prompt: Entry Br.CN1CCC[C@H]2c3ccc(O)cc3CC[C@@H]21 (relative stereo) : reported ED50 = ?
Response: 9
